- PROCEDURE_SUMMARY: NFAT Signaling Pathway (AID 444);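 also: carbachol stimulus at about its EC50 of 1 µM final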
- CONDITION_DETAILS: Jurkat NFAT-bla M1, carbachol, beta-lactamase ratio, 5 h; at 38 µM (top of the series) unless noted
Inconclusive results are not listed. Active and inactive are the calls of the source. Calls follow the shape of the dose curve; as a rule, active = well fitted curve in either direction with a large enough effect (not every such curve was filed as active); inconclusive = small, poorly fitted or top-dose-only effect, or another doubt; inactive = flat fitted curve, though single readings scatter.
Respond with a class label; see Y (active), N (inactive)

Examples with answers:
# COMPOUND, ASSIGNED_LABEL
data = [
    ("COc1cc2c(CCNC(C)=O)c[nH]c2cc1O", "N"),
    ("O=C(O)C1=CC(=C(c2ccc(O)c(C(=O)O)c2)c2ccc(O)c(C(=O)O)c2)C=CC1=O", "N"),
    ("Nc1nc2[nH]c(=O)cnc2c(=O)[nH]1", "N"),
    ("CN(C)CCC(c1ccc(Br)cc1)c1ccccn1 (configuration not stated)", "Y"),
    ("NC1(C(=O)O)CC1", "N"),
    ("Fc1ccc(CN(C2=NCCN2)c2c(Cl)cccc2Cl)cc1", "N"),
]

Now for a further compound.
*Q* Identify the outcome logged in this assay for the compound shown: COc1cc(/C=C(\C#N)C(=O)c2ccc(O)c(O)c2)cc(I)c1O
*A* N

* * *

- TESTED_SYSTEM: ATPase family AAA domain-containing protein 5 (Homo sapiens)
- PROCEDURE_SUMMARY: Validation screen for small molecules that inhibit ELG1-dependent DNA repair in human embryonic kidney (HEK293T) cells expressing luciferase-tagged ELG1 (AID 493107); also: nearly all actives have a fitted effect of over 70% in size; also: potency is read from the fitted curve at half-maximal effect
- CONDITION_DETAILS: HEK293T ELG1-luciferase level, luminescence, 5-fluorouridine co-treatment, 16 h; series mostly up to 46.1 µM
Inconclusive results are not listed. Activity calls are given as the source filed them. Calls come from the whole dose curve; as a rule, active = well fitted inhibition curve with a large enough effect; inconclusive = small, poorly fitted or top-dose-only effect, or effect the other way; inactive = flat fitted curve, though single readings scatter.
OBSERVATION_TYPE: Potency

Observe how each entry below is paired with its result.
# COMPOUND, Potency
measured = [
    ("CC[N+](CC)(CC)CC(=O)Nc1c(C)cccc1C", "inactive"),
    ("COCc1nc2c([nH]1)c(=O)n(C)c(=O)n2CC(C)C", "inactive"),
    ("C=CCN1CCc2cc(O)c(O)cc2C(c2ccccc2)C1 (stereo unspecified)", "inactive"),
    ("S=C(S)N1CCCC1", "inactive"),
    ("COc1ccccc1N1CCN(CCCCN2C(=O)c3ccccc3C2=O)CC1", "inactive"),
]

The record that follows has no Potency shown yet.
*Q* I would be grateful if you could share the reported Potency for C=C1C(=O)O[C@@H]2[C@H]3O[C@]3(C)CCC=C(C)CC[C@@H]12 .
*A* 25.9 µM (active)

* * *

- TESTED_SYSTEM: Chromobox protein homolog 1 (Homo sapiens) (UniProt P83916)
- Sequence (P83916 whole entry, looked up): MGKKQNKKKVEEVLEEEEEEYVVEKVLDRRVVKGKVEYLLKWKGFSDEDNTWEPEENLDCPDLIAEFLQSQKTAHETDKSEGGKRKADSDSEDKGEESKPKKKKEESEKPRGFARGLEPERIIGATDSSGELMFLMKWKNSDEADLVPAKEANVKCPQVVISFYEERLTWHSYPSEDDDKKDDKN
- PROCEDURE_SUMMARY: qHTS Validation Assay for Inhibitors of HP1-beta Chromodomain Interactions with Methylated Histone Tails (AID 488953); also: nearly all actives have a fitted effect of over 50% in size
- CONDITION_DETAILS: HP1-beta chromodomain / methylated histone peptide binding assay; series mostly up to 114 µM
Results filed as inconclusive are left out. Activity calls are given as the source filed them. Calls come from the whole dose curve; as a rule, active = well fitted inhibition curve with a large enough effect; inconclusive = small, poorly fitted or top-dose-only effect; inactive = no such curve, though single readings can be large or run the other way.
Respond with a class label; see class 1 for active, class 0 for inactive

Examples with answers:
# SMILES_REPRESENTATION, ASSIGNED_LABEL
records = [
    ("N[C@H](C(=O)O)[C@H](Cc1ccccc1)C(=O)O", "class 0"),
    ("CCCCOC(=O)NS(=O)(=O)c1sc(CC(C)C)cc1-c1ccc(Cn2c(CC)nc3c(C)cc(C)nc32)cc1", "class 0"),
    ("COc1ccc(-c2ccc(N)[n+](CCCC(=O)O)n2)cc1", "class 0"),
    ("COc1cc(/C=C(\\C#N)C(=O)c2ccc(O)c(O)c2)cc(I)c1O", "class 1"),
]

Now for a further molecule.
*Q* Identify the outcome logged in this assay for the molecule shown: Cc1nc(N=Nc2cc(S(=O)(=O)O)c3cc([N+](=O)[O-])cc(S(=O)(=O)O)c3c2)c(COP(=O)(O)O)c(C=O)c1O
*A* class 1
